The reported measurements were obtained from PubChem BioAssay AID652063.

Would you kindly list IC50 for each of these compounds?
system: mouse cells, CHOP mRNA qRT-PCR; assay: CHOP mRNA level inhibitors by qRT-PCR in mouse cells at medium throughput (AID 652063)
Calls of active or inactive are those of the source. No rule for the calls is given here.

State, in one line, measured IC50 of Cc1ccc(NC(=O)O/N=C/c2c(C)nn(C(C)(C)C)c2C)cc1Cl 4.53 µM (inactive)

State, in one line, measured IC50 of CC(C)(C)c1ccc(-c2noc(CCC(N)=O)n2)cc1 > 20 µM (inactive)

State, in one line, measured IC50 of Cc1cc(C(=O)COC(=O)c2ccccc2O)c(C)n1Cc1cccs1 6.12 µM (inactive)

State, in one line, measured IC50 of Cc1cc(C2=NNC(=NC3CC3)SC2)c(C)n1-c1ccccc1F 2.89 µM (inactive)

State, in one line, measured IC50 of Cc1nn(C(C)(C)C)c(C)c1/C=N/OC(=O)Nc1ccc(Cl)cc1 18.4 µM (inactive)

State, in one line, measured IC50 of Cc1ccc(NC(=O)c2cc3ccccc3oc2=O)cc1S(=O)(=O)N(C)C > 20 µM (inactive)

State, in one line, measured IC50 of CCOc1ccc(-c2nc(CSCC(=O)NCc3ccco3)c(C)o2)cc1 4.37 µM (inactive)

State, in one line, measured IC50 of CC(C)(C)c1ccc(C(=O)Nc2ccc(CC(=O)O)cc2)o1 > 20 µM (inactive)

State, in one line, measured IC50 of Cc1cc(C2=NNC(=NC3CC3)SC2)c(C)n1-c1ccccc1 3.58 µM (inactive)

State, in one line, measured IC50 of C=CCn1c(C)cc(C2=NN=C(NCC)SC2)c1C 6.18 µM (inactive)

State, in one line, measured IC50 of CCN=C1NN=C(c2cc(C)n(Cc3ccco3)c2C)CS1 3.73 µM (inactive)
